assay.system: CDK4/CyclinD1 (Homo sapiens)
Construct: purchased Thermofisher PR8064A
Sequence (P11802 whole entry): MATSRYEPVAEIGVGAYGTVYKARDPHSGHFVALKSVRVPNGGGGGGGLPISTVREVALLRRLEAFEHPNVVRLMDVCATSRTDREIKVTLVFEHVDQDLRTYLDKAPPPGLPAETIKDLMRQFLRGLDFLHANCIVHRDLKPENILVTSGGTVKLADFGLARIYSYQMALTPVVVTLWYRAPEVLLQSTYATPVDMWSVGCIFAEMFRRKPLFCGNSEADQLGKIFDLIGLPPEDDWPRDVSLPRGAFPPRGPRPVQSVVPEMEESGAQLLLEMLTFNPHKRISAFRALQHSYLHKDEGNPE
Sequence (P24385 whole entry partner): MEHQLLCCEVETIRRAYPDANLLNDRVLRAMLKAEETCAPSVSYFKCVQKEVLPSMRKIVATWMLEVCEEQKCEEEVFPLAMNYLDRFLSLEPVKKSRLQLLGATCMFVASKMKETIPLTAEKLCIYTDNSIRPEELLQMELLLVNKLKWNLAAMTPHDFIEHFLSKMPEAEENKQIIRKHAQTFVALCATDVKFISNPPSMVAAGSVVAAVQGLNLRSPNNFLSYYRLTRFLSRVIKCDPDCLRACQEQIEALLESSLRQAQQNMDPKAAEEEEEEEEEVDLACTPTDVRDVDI
experiment.description: Assay for inhibition of CDK4/CyclinD1 (Caliper microfluidic kinase assay)
Format: biochemical
applied.conditions: CDK4/CyclinD1, 200 μM ATP
pIC50: −log10 of the molar value.
observed.property: pIC50

The cases that follow already have their pIC50 on record.
# compound, pIC50
measured = [
    ("CC(C)c1cnn2ccc(-c3ccnc(Nc4ccc(C(=O)N5CC(N(C)C)C5)cc4)n3)cc12", "> 8.00"),
    ("CC(C)n1cnc2c1CN(c1nc(Nc3ccc(S(N)(=O)=O)nc3)ncc1F)CC2", "7.00 to 8.00"),
    ("COc1nc(-c2ccnc(Nc3ccc4c(n3)CCN(C(=O)CO)C4)n2)cc2c1ncn2C(C)C", "7.00 to 8.00"),
]

Report pIC50 for each item below.
1. CC(C)c1cnn2ccc(-c3ccnc(Nc4ccc(N5CCNCC5=O)cc4O)n3)cc12
2. CNC1CCCN(c2ccc(Nc3nccc(-c4ccn5ncc(C(C)(C)C)c5c4)n3)nc2)C1=O (centres unmarked)

["7.00 to 8.00", "> 8.00"]
